The measurements presented in this section are drawn from patent US20210347873A1.

- assayedSystem: mouse BLyS protein (mouse, UniProt Q9WU72 69-309)
- Sequence (Q9WU72 69-309): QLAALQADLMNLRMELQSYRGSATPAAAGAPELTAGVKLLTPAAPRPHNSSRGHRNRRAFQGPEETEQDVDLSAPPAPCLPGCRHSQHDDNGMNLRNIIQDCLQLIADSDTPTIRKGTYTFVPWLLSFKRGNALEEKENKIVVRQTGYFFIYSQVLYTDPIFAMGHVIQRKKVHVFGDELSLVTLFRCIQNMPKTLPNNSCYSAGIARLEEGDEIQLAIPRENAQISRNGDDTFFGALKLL
- assay: cell-based or functional assay
valueType: mouse B lymphocyte proliferation (OD450 nm), antibody 0.000256 nM

1) 8E7D9C7F5 (antibody, V domains shown, Mouse hybridoma monoclonal antibody purified on Protein G) VH: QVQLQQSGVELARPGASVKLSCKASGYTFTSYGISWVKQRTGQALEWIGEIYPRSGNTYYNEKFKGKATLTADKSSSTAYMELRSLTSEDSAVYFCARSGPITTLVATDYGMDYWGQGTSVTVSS VL: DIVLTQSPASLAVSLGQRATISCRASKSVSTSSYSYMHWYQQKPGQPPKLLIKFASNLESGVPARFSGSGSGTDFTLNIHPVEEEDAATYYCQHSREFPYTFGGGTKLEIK: 2220
2) 97E7B3F2 (antibody, V domains shown, Mouse hybridoma monoclonal antibody purified on Protein G) VH: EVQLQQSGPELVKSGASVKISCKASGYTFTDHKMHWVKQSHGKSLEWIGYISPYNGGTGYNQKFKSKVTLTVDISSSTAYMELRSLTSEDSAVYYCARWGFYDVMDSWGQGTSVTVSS VL: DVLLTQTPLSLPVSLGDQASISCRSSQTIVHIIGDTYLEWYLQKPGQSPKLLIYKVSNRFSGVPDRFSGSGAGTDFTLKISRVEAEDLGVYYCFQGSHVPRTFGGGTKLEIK: 2200
3) 35E6F7C3 (antibody, V domains shown, Mouse hybridoma monoclonal antibody purified on Protein G) VH: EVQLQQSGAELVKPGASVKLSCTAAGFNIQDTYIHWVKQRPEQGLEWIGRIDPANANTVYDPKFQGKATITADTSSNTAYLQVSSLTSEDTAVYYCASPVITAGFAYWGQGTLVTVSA VL: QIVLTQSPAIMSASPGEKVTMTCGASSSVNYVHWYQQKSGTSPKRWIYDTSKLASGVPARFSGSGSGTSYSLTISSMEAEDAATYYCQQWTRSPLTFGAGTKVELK: 2160
4) 111D10D6G3 (antibody, V domains shown, Mouse hybridoma monoclonal antibody purified on Protein G) VH: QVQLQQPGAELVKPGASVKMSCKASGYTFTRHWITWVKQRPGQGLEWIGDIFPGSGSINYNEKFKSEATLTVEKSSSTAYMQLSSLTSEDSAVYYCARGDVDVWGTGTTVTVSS VL: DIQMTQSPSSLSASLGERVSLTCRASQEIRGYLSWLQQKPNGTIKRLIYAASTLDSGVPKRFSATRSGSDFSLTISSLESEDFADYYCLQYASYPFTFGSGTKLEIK: 2300
5) L1D12 (antibody, V domains shown, From a human naive scFv phage library; also called human BLyS antibody L1D12; LID12) VH: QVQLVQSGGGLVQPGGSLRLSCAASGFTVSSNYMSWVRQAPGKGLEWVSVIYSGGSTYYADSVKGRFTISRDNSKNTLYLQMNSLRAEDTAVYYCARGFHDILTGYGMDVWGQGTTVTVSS VL: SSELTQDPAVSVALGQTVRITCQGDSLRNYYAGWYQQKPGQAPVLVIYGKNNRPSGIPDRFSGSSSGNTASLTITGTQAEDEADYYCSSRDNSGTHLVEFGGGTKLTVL: 2450
